- assayTarget: T1, ZFP SBS#514 (synthetic)
- T1 chain: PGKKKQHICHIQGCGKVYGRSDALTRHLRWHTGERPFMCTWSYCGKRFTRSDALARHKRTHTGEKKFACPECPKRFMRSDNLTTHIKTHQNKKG
- testDescription: EMSA
- cond: tags: MBP fusion
readout: Kd (nM)
Number in nM, nothing else.

Given the binder TAGGTGGTGG (dsDNA) DNA 1: TAGGTGGTGG DNA 2: CCACCACCTA , what is its reported Kd?
10
